Would you mind telling me the reported TGI of each entry?
# Tested on: SF-539 CNS
# assay procedure: NCI tumour cell line growth inhibition, 48 h
Where a SMILES comes first, the peptide text is derived from it. [ ]: non-standard residue; d: D form. The star is where a group is joined. Phe(4-NO2) = N[CH](Cc1ccc([N+](=O)[O-])cc1)C(=O)O; Cbz = O=C(OCc1ccccc1)*

COc1cc(C2c3cc4c(cc3[C@@H](Nc3cnc5ccccc5c3)C3COC(=O)[C@H]23)OCO4)cc(OC)c1O (stereo partly drawn)	0.82 µM
O=c1oc2cc(O)ccc2cc1-c1nc2ccccc2o1	> 100 µM
C=C1C(=O)OC2/C=C(\CO)C3OC3C3OC3(C)CC(OC(=O)/C(=C/C)COC(C)=O)C12 (stereo not drawn)	7.38 µM
O=C(O)C(Cc1ccc(O)cc1)N=Cc1nc(-c2ccccc2)oc1O (stereo not drawn)	> 100 µM
CCOC(=O)CCC(NC(=O)OCc1ccccc1)C(=O)NC(CCC(=O)OCC)C(=O)NC(CCC(=O)OCC)C(=O)NC(CCC(=O)OCC)C(=O)NC(CCC(=O)OCC)C(=O)NC(Cc1ccc([N+](=O)[O-])cc1)C(=O)NC(CCC(=O)OCC)C(=O)NC(CCC(=O)OCC)C(=O)NC(CCC(=O)OCC)C(=O)NC(CCC(=O)OCC)C(=O)NC(CCC(=O)OCC)C(=O)OCC (stereo not drawn) (Cbz-E(OEt)E(OEt)E(OEt)E(OEt)E(OEt)[Phe(4-NO2)]E(OEt)E(OEt)E(OEt)E(OEt)E(OEt)-OEt; configuration not given here)	> 50 µM
NNC(=S)N/N=C(\c1nc2ccc(Cl)cc2[nH]c1=O)C(O)c1cccc([N+](=O)[O-])c1 (stereo not drawn)	> 47.5 µM

For every listed record, write down its TGI.
1. N/N=C1\C(=O)N(c2ccc(Cl)c(Cl)c2)C(=O)C1C(=O)Nc1ccc(Cl)c(Cl)c1 (stereo not drawn)
2. C(#Cc1ccccc1C#Cc1cnccn1)c1cnccn1
3. CN1C=C(C(N)=O)Cc2ccsc21
4. Cc1nc2ccccc2c(/C=C/c2ccc(C(F)(F)F)cc2)c1C(=O)/C=C/c1ccccc1
5. CCC(=O)NC(NNS(=O)(=O)c1ccc(C)cc1)(C(F)(F)F)C(F)(F)F
6. O=[N+]([O-])/C(C(Cl)=C(Cl)Cl)=C(\NCc1ccccc1)Sc1ccccc1
7. NNC(=O)c1cc(Cl)ccc1NC(=O)C12CC3CC(CC(C3)C1)C2

[A]
> 100 µM
> 100 µM
> 100 µM
3.13 µM
> 100 µM
38.9 µM
> 100 µM
